Recorded values, source ChEMBL document CHEMBL4513216.

I'd appreciate it if you could supply INHIBITION values for the items below.
Tested on: Plasmodium berghei
Assay: Screen against P. berghei liver stage (PbLuc), transformed with Luciferase, at 10uM
Format: functional, HepG2
Details: tested at 10 uM
In all, about 69,000 compounds went through this assay and about 8,600 (12%) showed an effect of 50% or more. For the sample, strong results were picked, then their nearest neighbours and some compounds at random.
Numbers only, in %.

Would you please look over these solved cases?
INSERT INTO results (compound, numeric_readout) VALUES
  ('CN(C)c1ncccc1CNS(=O)(=O)c1cc(F)ccc1F', -27.8),
  ('COC(=O)c1cccc(S(=O)(=O)NCc2cccnc2N(C)C)c1', 13.3),
  ('CN(C)c1ncccc1CNS(=O)(=O)c1ccc(C(N)=O)cc1', -3.2);

For every listed record, write down its INHIBITION.
1. CNC(=O)c1ccc(S(=O)(=O)NCc2cccnc2N(C)C)cc1
2. CCC(NC(=O)c1ccoc1)c1ccccc1OCC(=O)N1CCCC1 (stereo not drawn)

Response line:
1. 29.7
2. 29.05

---

System: Plasmodium berghei
Experiment: Screen against P. berghei liver stage (PbLuc), transformed with Luciferase, at 10uM
Assay type: functional, HepG2
Details: tested at 10 uM
Screen size: about 69,000 compounds; about 8,600 (12%) showed an effect of 50% or more. The list comes from a sample in which strong results are over-represented; it also holds close analogues and randomly drawn compounds.
I'd appreciate it if you could supply INHIBITION values for the items below.
Give bare numbers, in %.

Would you please look over these solved cases?
INSERT INTO assay_data (compound, numeric_readout) VALUES
  ('Cc1nccn1-c1ccc(CN2CC3C[C@@H](O)CN3C[C@@H]2C)cc1 (stereo not given in full)', -44.8),
  ('Cc1nccn1-c1ccc(N2CCC(NC(C)CC(C)C)CC2)cc1 (stereo not given)', 38.5),
  ('CCCc1nccn1-c1ccc(C(C)O)cc1 (stereo not given)', -20.6);

For every listed record, write down its INHIBITION.
1. CCCC(C)NC1CCN(c2ccc(-n3ccnc3C)cc2)CC1 (stereo not given)
2. Cn1cc(C(NCCc2ccccn2)c2cccc(F)c2)cn1 (stereo not given)

Response line:
1. 52.1
2. -1.75

---

I'd appreciate it if you could supply INHIBITION values for the items below.
Test system: Plasmodium berghei
Experiment: Screen against P. berghei liver stage (PbLuc), transformed with Luciferase, at 10uM
Assay type: functional, HepG2
Conditions: tested at 10 uM
Among all 69,000 compounds or so, about 8,600 (12%) showed an effect of 50% or more. Shown is part of a subset that was picked to be rich in strong results.
One number for each entry, in %.

Would you please look over these solved cases?
INSERT INTO assay_data (compound, result_unit, numeric_readout) VALUES
  ('Cc1ccnc(C2(C)CCCN2C(=O)c2cnccn2)n1 (configuration not stated)', '%', 6.32),
  ('Cc1nc(C)c(C)c(NCCSCc2[nH]cnc2C)n1', '%', -8.47),
  ('Cc1noc(CCCC(=O)N(CCC(=O)O)Cc2ccc(F)c(F)c2)n1', '%', -13),
  ('COc1ccc(Cl)cc1C(=O)N1C[C@H](C(C)C)[C@@H](N)C1', '%', -0.55),
  ('CC(=O)NC[C@]1(O)CCN(C(=O)c2ccc(C)c(F)c2)C[C@H]1O', '%', -7.79);

For every listed record, write down its INHIBITION.
1. OC(CN1CCN(Cc2nc(C3CC3)no2)CC1)c1ccccc1 (configuration not stated)
2. COC1COC2(CCN(C(=O)c3cnc(C)cn3)CC2)C1 (configuration not stated)
3. CC(=O)NC[C@]1(O)CCN(C(=O)c2ccc3c(c2)OCO3)C[C@H]1O
4. CC(=O)NC[C@]1(O)CCN(C(=O)c2ccc3c(c2)CCC3)C[C@H]1O
5. COc1ncccc1C(=O)N1CCC2(CC1)CC(OC)CO2 (configuration not stated)
6. CCS(=O)(=O)N1CCC2(CN(c3ccsc3)C(=O)CN2C)C1 (configuration not stated)
7. O=C(c1ccccc1F)N1CCC2(CC1)CC(Oc1ccccn1)CO2 (configuration not stated)

Response line:
1. -45.9
2. -21.7
3. 59
4. 14.5
5. 25.8
6. 1.9
7. 46.6

For every listed record, write down its INHIBITION.
1. Cc1nnc(CNC(C)c2cc(C)c(F)c(C)c2)s1 (configuration not stated)
2. Cc1noc(C)c1C(=O)NCc1ccc(N2CCOCC2)nc1

Response line:
[36.2, 5.03]

For every listed record, write down its INHIBITION.
1. Cc1noc(C)c1C(=O)NCc1ccc(N2CCC(C)CC2)nc1
2. COC1COC2(CCN(C(=O)c3ccccc3F)CC2)C1 (configuration not stated)

Response line:
[74.9, 62.9]

Prompt line: If you can, please state the reported INHIBITION value of CC(C)OCCCNC(=O)C1CCCN(c2ccc3nncn3n2)C1 (configuration not stated) .
Response line: 32.3
